inhibition values, listed per item
Target: Collagenase 3 (Homo sapiens) (UniProt P45452)
Assay: Inhibition of MMP13 (unknown origin) at 10 uM
Respond with the bare value in %.

Recorded results for 3 molecules are shown here.
>>> value("O=C(NO)C1(COc2ccc(C#Cc3ccc(CN4CCN(CCn5ccnc5)CC4)cc3)cc2)CCOCC1")
80
>>> value("C[C@@H]1CN(Cc2ccc(C#Cc3ccc(OCC4(C(=O)NO)CCOCC4)cc3)cc2)C[C@H](C)O1")
75
>>> value("O=C(NO)C1(COc2ccc(C#Cc3ccc(CN4CCOCC4)cc3)cc2)CCOCC1")
82

Now for a further molecule.
// query Which value of inhibition has been reported for O=C(NO)C1(C[S+]([O-])c2ccc(C#Cc3ccc(CN4CCOCC4)cc3)cc2)CCOCC1 (racemic) in the records?
// result 96
